- EXPERIMENTAL DETAILS: physchem
- RUN CONDITIONS: aqueous with cosolvent or surfactant or cyclodextrin
REPORTED METRIC: solubility
Form entry: enter the amount, then its unit.

-- ask Indicate the recorded solubility value for this molecule: `CC(C)C[C@H](NC(=O)[C@H](CCc1ccccc1)NC(=O)CN1CCOCC1)C(=O)N[C@@H](Cc1ccccc1)C(=O)N[C@@H](CC(C)C)C(=O)[C@@]1(C)CO1`
-- reply 9 µg/mL

Reference source for all entries: patent US20240238214A1
